# Tested on: Stage 6 cells
# METHOD_NOTES: Perifusion GSIS with sequential secretagogue challenges
# Type: cell-based, human
# CONDITION_SUMMARY: 30 mM KCL, 20 mM L-Arginine, 300 μM Tolbutamide, 100 μM IBMX, 10 nM Extendin-4
READOUT_KIND: insulin secretion during second challenge, secretagogue added to 20 mM glucose

N=C(N)NCCC[C@H](N)C(=O)O; largest increases
[Cl-].[K+]; largest increases
